# DC50 listing for each entry below
Target: Nanoluciferase-BRD9 fusion protein (3×FLAG-NLuc-BRD9) in SYO-1 cells (Homo sapiens, UniProt Q9H8M2)
Construct: expressed in transfected cells; host or cells: SYO-1
Sequence (Q9H8M2 whole entry, the tested form may be a part): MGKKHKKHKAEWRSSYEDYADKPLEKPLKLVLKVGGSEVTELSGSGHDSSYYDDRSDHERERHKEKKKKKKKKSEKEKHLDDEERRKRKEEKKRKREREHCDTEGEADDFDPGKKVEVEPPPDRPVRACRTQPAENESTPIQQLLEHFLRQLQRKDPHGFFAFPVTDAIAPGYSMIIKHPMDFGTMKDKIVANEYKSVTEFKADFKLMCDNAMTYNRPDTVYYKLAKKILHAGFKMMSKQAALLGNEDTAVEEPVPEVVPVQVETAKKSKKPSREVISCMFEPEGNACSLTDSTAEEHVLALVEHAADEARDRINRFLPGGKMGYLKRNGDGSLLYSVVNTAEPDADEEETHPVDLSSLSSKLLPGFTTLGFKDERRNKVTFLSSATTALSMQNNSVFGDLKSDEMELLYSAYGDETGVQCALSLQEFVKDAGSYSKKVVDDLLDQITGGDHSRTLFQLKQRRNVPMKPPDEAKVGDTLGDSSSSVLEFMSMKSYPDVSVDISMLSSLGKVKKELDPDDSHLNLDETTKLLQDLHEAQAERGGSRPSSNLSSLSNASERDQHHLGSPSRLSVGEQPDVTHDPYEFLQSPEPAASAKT
Test: SYO1 BRD9 NanoLuc Degradation Assay
Type: cell-based
Details: Table 6B; SYO-1 cells expressing 3×FLAG-NLuc-BRD9, 6 hours incubation, 1 μM top dose; read-out: SYO1 BRD9-NanoLuc degradation IC50

Previously resolved entries follow.
COc1cc(-c2cn(C)c(=O)c3cnc(N4CCC4)cc23)ccc1CN1CCC2(CC1)CN(c1ccc3c(c1)C(=O)N(C1CCC(=O)NC1=O)C3)C2 (centres unmarked) ... < 0.01 µM
COc1cc(-c2cn(C)c(=O)c3cnc(N4CCOCC4)cc23)cc(OC)c1CN1CCN(c2ccc3c(c2)C(=O)N(C2CCC(=O)NC2=O)C3=O)CC1 (centres unmarked) ... < 0.01 µM
COc1cc2c(-c3cc(OC)c(CN4CC(CN5CCC6(CC5)CN(c5ccc7c(c5)C(=O)N(C5CCC(=O)NC5=O)C7)C6)C4)c(OC)c3)cn(C)c(=O)c2cn1 (centres unmarked) ... < 0.01 µM
COc1cc(-c2cn(C)c(=O)c3cnc(N4CCC4)cc23)ccc1CN1CCC2(CC1)CN(c1ccc3c(c1)CN(C1CCC(=O)NC1=O)C3=O)C2 (centres unmarked) ... < 0.01 µM
COc1cc(-c2cn(C)c(=O)c3cnc(N(C)C)cc23)cnc1CN1CCC(CCN2CCN(c3ccc4c(c3)C(=O)N(C3CCC(=O)NC3=O)C4=O)CC2)CC1 (centres unmarked) ... < 0.01 µM

Now turn to the next compound.
## Input Record request: DC50 value, item COc1cc(-c2cn(C)c(=O)c3cnc(OC(F)F)cc23)cc(OC)c1CN1CC(CN2CCC3(CC2)CN(c2ccc4c(c2)C(=O)N(C2CCC(=O)NC2=O)C4)C3)C1 (centres unmarked)
## Output ≥ 1 µM
